# pEC50 per record follows
molecular target: human β3 adrenergic receptor (Homo sapiens); construct: expressed in transfected cells; host or cells: Chinese hamster ovary (CHO) cells, stably transfected; assay: Beta-3 agonist in vitro functional assay (cAMP production, LANCE, CHO cells stably transfected with cloned β3 receptor); type: cell-based; conditions: cAMP production in CHO cells expressing human β3 AR; ranges as class symbols; read-out: Human β3 agonist functional activity
Sequence (P13945 whole entry): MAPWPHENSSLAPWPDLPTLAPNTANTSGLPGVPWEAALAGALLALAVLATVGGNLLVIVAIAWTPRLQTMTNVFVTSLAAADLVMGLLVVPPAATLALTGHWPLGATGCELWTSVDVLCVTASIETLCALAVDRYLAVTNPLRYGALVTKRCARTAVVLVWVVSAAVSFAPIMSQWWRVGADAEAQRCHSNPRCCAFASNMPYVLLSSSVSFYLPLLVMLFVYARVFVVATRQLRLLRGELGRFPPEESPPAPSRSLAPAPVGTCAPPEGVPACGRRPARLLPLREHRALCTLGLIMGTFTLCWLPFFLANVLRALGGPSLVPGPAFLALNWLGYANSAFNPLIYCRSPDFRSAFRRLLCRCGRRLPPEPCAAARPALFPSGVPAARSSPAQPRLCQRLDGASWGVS
pEC50: −log10 of the molar value.

**Query** Data request, read-out pEC50, for O=C(c1ccc(C[C@@H]2CC[C@H]([C@H](O)COc3ccccc3)N2)cc1)N1CCC(n2nccn2)CC1
**Result** 8.00 to 9.00

====

# pEC50 per record follows
target: human β3 adrenergic receptor (Homo sapiens); construct: expressed in transfected cells; host or cells: Chinese hamster ovary (CHO) cells, stably transfected; assay: Beta-3 agonist in vitro functional assay (cAMP production, LANCE, CHO cells stably transfected with cloned β3 receptor); type: cell-based; conditions: cAMP production in CHO cells expressing human β3 AR; ranges as class symbols; read-out: Human β3 agonist functional activity
pEC50: −log10 of the molar value.

ENTRY_SMILES	OBSERVED_MEASUREMENT
O=C(c1ccc(C[C@@H]2CC[C@H]([C@H](O)COc3ccccc3)N2)cc1)N1CCC(n2ccnn2)CC1	7.00 to 7.96

**Query** Data request, read-out pEC50, for O=C(c1ccc(C[C@@H]2CC[C@H]([C@H](O)COc3ccccc3)N2)cc1)N1CCN(Cc2ccncn2)CC1
**Result** 8.00 to 9.00

**Query** Data request, read-out pEC50, for O=C(c1ccc(C[C@@H]2CC[C@H]([C@H](O)COc3ccccc3)N2)cc1)N1C[C@@H]2[C@H](C1)[C@H]2n1cnnn1
**Result** > 9.00

**Query** Data request, read-out pEC50, for Cn1nnnc1C1CCN(C(=O)c2ccc(C[C@@H]3CC[C@H]([C@H](O)COc4ccccc4)N3)cc2)CC1
**Result** > 9.00
